Taken from PubChem BioAssay (NCI).

- System: COLO 205 colon
- measurement notes: NCI tumour cell line growth inhibition, 48 h
Record form. Attribute: TGI. Fill in for each entry.

So for COc1ccc2c(c1)N(C(C)=O)CN1C(=O)CCC21 (centres undefined) , the logged TGI turned out to be > 100 µM

So for CCOC(=O)C1=C(O)c2ccccc2C(=O)C1=O , the logged TGI turned out to be > 100 µM

So for NS(=O)(=O)c1ccc(NC(=O)CC(=O)Nc2ccc(S(N)(=O)=O)cc2)cc1 , the logged TGI turned out to be > 100 µM

So for CC1(C)CCCCCCCCCC(C)(CCCO)C1=O (centres undefined) , the logged TGI turned out to be 30.1 µM

So for CC1(C)[C@@H]2C[C@H]1C(Cc1ccc(C[C@H]3c4cc(-c5ccccn5)ncc4[C@H]4C[C@@H]3C4(C)C)cc1)c1cc(-c3ccccn3)ncc12 (some centres undefined) , the logged TGI turned out to be 13.7 µM

So for COc1ccc(NC(=O)Nc2ccc(Nc3nc(C)cc(Nc4ccc(C)cc4)n3)cc2)cc1 , the logged TGI turned out to be 3.62 µM

So for CCN(Cc1nc2cc(C(F)(F)F)ccc2nc1-c1ccccc1)c1ccc(OC)c(OC)c1 , the logged TGI turned out to be > 100 µM

So for C=C(C)[C@@H]1CC[C@@H](C)[C@](O)([C@@H]2C[C@@H]([C@H](COC(=O)c3ccccc3)OC(=O)c3ccccc3)OC2=O)C1 , the logged TGI turned out to be > 100 µM

So for CCOC(=O)c1cc2cc(NC(=O)c3cc4cc([N+](=O)[O-])ccc4n3C)ccc2n1C , the logged TGI turned out to be > 100 µM

So for CC1CCCN(CC(O)CN2CCCc3ccccc32)C1 (centres undefined) , the logged TGI turned out to be > 100 µM

So for O=C(O)C(Br)C(Br)c1ccccc1[N+](=O)[O-] (centres undefined) , the logged TGI turned out to be > 100 µM

So for CC(=O)NCC1(c2ccccc2)CCN(CC2COc3ccccc3O2)CC1 (centres undefined) , the logged TGI turned out to be > 100 µM

So for O=C(c1ccco1)c1c(C(F)(F)F)nc2cc(C(F)(F)F)ccc2[n+]1[O-] , the logged TGI turned out to be > 100 µM

So for CCCC[P+](c1ccccc1)(c1ccccc1)c1ccccc1 , the logged TGI turned out to be 7.15 µM

====

- Tested on: UACC-257 melanoma
- measurement notes: NCI tumour cell line growth inhibition, 48 h
observed property: TGI

So for CC1(C)C=C(/C=N/Nc2ccc(Br)cc2)C(C#N)=C(O)C1(C#N)C#N , the logged TGI turned out to be > 100 µM

So for Cc1ccccc1-n1c(/C=C\c2ccccn2)nc2ccccc2c1=O , the logged TGI turned out to be > 100 µM

So for O=c1n(-c2ccccc2)c(=O)n2n1C1CCC2CC1 , the logged TGI turned out to be > 100 µM

====

- Tested on: ACHN renal
- measurement notes: NCI tumour cell line growth inhibition, 48 h
observed property: TGI (µM)
Answer with a number only, understood to be in µM.

So for CCOC(=O)c1c(C)n(CC(C)C)c2c1cc1oc(=O)c(=O)n3cnc2c13 , the logged TGI turned out to be 24.1

So for C=C1C(=O)O[C@H]2[C@H]1[C@H](OC(=O)/C(C)=C\C)C[C@]1(CO1)[C@@H]1[C@H](OC(C)=O)C=C(C)[C@]21O , the logged TGI turned out to be 24.5

====

- System: SK-MEL-28 melanoma
- measurement notes: NCI tumour cell line growth inhibition, 48 h
Record form. Attribute: TGI. Fill in for each entry.

# TGI measured on SK-MEL-28 melanoma for item Cc1cc(S(=O)(=O)Nc2nc(N)nc(N3CCOCC3)n2)c(SCC(=O)O)cc1Cl = > 10 µM

# TGI measured on SK-MEL-28 melanoma for item CCOC(OCC)c1ccc(/C=C/c2cc(OC)c(OC)c(OC)c2)cc1 = 56.7 µM

# TGI measured on SK-MEL-28 melanoma for item O=C1/C(=C/c2ccc(Cl)cc2)NC(=S)N1CN1CCOCC1 = > 100 µM

# TGI measured on SK-MEL-28 melanoma for item CN(/N=C/c1ccnc2ccccc12)c1ccc([N+](=O)[O-])cc1[N+](=O)[O-] = > 100 µM

# TGI measured on SK-MEL-28 melanoma for item CN(C)c1ccc2nc3c(C(=O)O)cc(=O)c(O)c-3oc2c1 = > 100 µM

# TGI measured on SK-MEL-28 melanoma for item CCOC(=O)N1c2ccccc2S(=O)(=O)c2ccccc21 = > 100 µM

# TGI measured on SK-MEL-28 melanoma for item NC(=O)C12C3C4C1C1C2C3C41C(N)=O (stereo unspecified) = > 100 µM

# TGI measured on SK-MEL-28 melanoma for item CCCCOP(=O)(OCCCC)/C(C#N)=C/c1ccco1 = > 100 µM

# TGI measured on SK-MEL-28 melanoma for item CC(C)CNc1nc(N)[nH]c(=O)c1NC=O = > 100 µM

# TGI measured on SK-MEL-28 melanoma for item Cc1ccc2[nH]c(C(=O)NN3C(=O)CSC34CCCC(C)C4)c(-c3ccccc3)c2c1 (stereo unspecified) = 37.6 µM

# TGI measured on SK-MEL-28 melanoma for item COC(=O)/C(C#N)=C1\NC(=O)CC(c2ccccc2)C1C#N (stereo unspecified) = > 100 µM

====

- Tested on: CAKI-1 renal
- measurement notes: NCI tumour cell line growth inhibition, 48 h
Record form. Attribute: TGI. Fill in for each entry.

So for Cc1nccc2c1cnc1ccnn12 , the logged TGI turned out to be > 100 µM

So for COc1ccc(C2SC(N)=Nc3c2c(C)nn3C(=O)c2ccc(Cl)cc2)cc1 (stereo not drawn) , the logged TGI turned out to be > 10 µM

So for CC1=CCC[C@@](C)(O)[C@@H]2C[C@H]3C(CSc4ccccc4)C(=O)O[C@H]3[C@@H](O2)[C@H](C)CCC1 (stereo partly drawn) , the logged TGI turned out to be 64.6 µM

So for COc1cc2c(cc1OC)C1C(O)C(OC)C=C3CC[N+](C)(C2)C31 (stereo not drawn) , the logged TGI turned out to be > 100 µM

So for Cn1cc2c(=O)n3ncn(-c4ccc(Br)cc4)c3nc2n1 , the logged TGI turned out to be > 100 µM

So for C[n+]1cccc(/C=C/c2ccc3cccc(O)c3n2)c1 , the logged TGI turned out to be > 100 µM

So for CCC(CC)C(=O)OC[n+]1cccc(-c2c(COC(=O)NC(C)C)c(COC(=O)NC(C)C)c3n2CCC3)c1 , the logged TGI turned out to be > 100 µM

So for CCCCN(CCCC)CC(C)(C)C(O)c1ccc(OC)c2ccccc12 (stereo not drawn) , the logged TGI turned out to be 16 µM

So for Cc1ccc(S(=O)(=O)NC(=O)NCC(=O)NCC(=O)O)cc1 , the logged TGI turned out to be > 100 µM

So for CCN(CC)Cc1ccc2cccnc2c1O , the logged TGI turned out to be > 100 µM

So for CN(C)c1ccc2nc3c(C(=O)O)cc(=O)c(O)c-3oc2c1 , the logged TGI turned out to be > 100 µM

So for COc1ccc2c(c1OC)-c1c(c3ccc([N+](=O)[O-])cc3c(=O)n1CCCN=[N+]=[N-])C2=O , the logged TGI turned out to be 9.73 µM

So for COc1cccc(-c2cccc(SC)n2)n1 , the logged TGI turned out to be > 100 µM

====

- Test system: NCI-H226 lung
- measurement notes: NCI tumour cell line growth inhibition, 48 h
observed property: TGI

# TGI measured on NCI-H226 lung for item O=C1Nc2ccccc2[C@]12C[C@H]2c1ccccn1 = > 100 µM

# TGI measured on NCI-H226 lung for item CCCCCCCCCCCCOC1C(C(COC2OC(C(O)CN3CCCCC3)C3OC(C)(C)OC23)NC(=O)Nc2ccccc2)OC2OC(C)(C)OC21 (stereo not given) = 38.1 µM

# TGI measured on NCI-H226 lung for item CC12CCc3ccccc3C1=Nc1ccccc12 (stereo not given) = 89.8 µM

# TGI measured on NCI-H226 lung for item Nc1nc(N)nc(-c2cnccn2)n1 = > 100 µM

# TGI measured on NCI-H226 lung for item NS(=O)(=O)c1ccc(NC(=O)CC(=O)Nc2ccc(S(N)(=O)=O)cc2)cc1 = > 100 µM

# TGI measured on NCI-H226 lung for item COc1cc(/C=C2\CC3C4CC=C5C[C@@H](N6CCCC6)CC[C@]5(C)C4CC[C@]3(C)[C@H]2OC(C)=O)ccc1OCCN1CCCCC1 (stereo not given in full) = 4.21 µM

# TGI measured on NCI-H226 lung for item CCCCCC(=O)OCC(=O)[C@H]1[C@H](C)C[C@H]2[C@@H]3C[C@H](F)C4=C/C(=N/OC(=O)c5cccc6c(=O)c7ccccc7[nH]c56)C=C[C@]4(C)[C@H]3[C@@H](O)C[C@@]21C = > 100 µM

# TGI measured on NCI-H226 lung for item CCOC(=O)c1nc2ccc(Cl)cc2c2c1CCO2 = > 100 µM

# TGI measured on NCI-H226 lung for item O=C1C(Cl)C(c2ccc(Cl)cc2)N1n1cnc2ccccc2c1=O (stereo not given) = > 100 µM

# TGI measured on NCI-H226 lung for item COc1ccc(OC)c(NC(=O)C(=O)Nn2c(=S)[nH]c3ccccc3c2=O)c1 = > 100 µM

# TGI measured on NCI-H226 lung for item Oc1cc(O)cc(/C=C/c2ccc(O)c(O)c2)c1 = 42.1 µM

# TGI measured on NCI-H226 lung for item O=C(CCCNC(=O)OCc1ccccc1)OCc1ccc2c(c1)C(=O)c1ccccc1C2=O = 42.6 µM

# TGI measured on NCI-H226 lung for item Fc1ccc(F)c(C2SCc3nc4ccccc4n32)c1 (stereo not given) = > 100 µM

# TGI measured on NCI-H226 lung for item Cc1[nH]c(=O)nc(CC(O)(c2ccccc2)c2ccccc2)c1-c1ccccc1 = > 100 µM

# TGI measured on NCI-H226 lung for item COc1ccc(/C=C/c2nc(=S)[nH][nH]2)cc1 = > 100 µM
